System: ε-PKC
ASSAY DETAILS: Translocation of ε-PKC in NG108-15 and CHO cells expressing the applicable receptor
Format: cell-based
CONDITION DESCRIPTION: NG108-15 cells expressing the applicable receptor; 200 mM Ethanol, 50 nM NPA, 1 μM D-ala-D-leu-enkephalin, 2 μM R(+) methanindamide, 20 μM Carbachol, 10^−5 M UK14304, 20 nM CCPA, 100 nM CGS-21680 HCl; None: Perinucleus
Where a name gives a salt, the structure may show the parent alone.
QUANTITY MEASURED: Predominant Localization of ε-PKC (agent alone)

> print(dat)
                                   compound        value
1               Brc1c(NC2=NCCN2)ccc2nccnc12  Perinucleus
2  CCNC(=O)[C@H]1O[C@@H](n2cnc3c(N)nc(NCCc4ccc(CCC(=O)O)cc4)nc32)[C@H](O)[C@@H]1O [CGS-21680 HCl]    Cytoplasm
3  OC[C@H]1O[C@@H](n2cnc3c(NC4CCCC4)nc(Cl)nc32)[C@H](O)[C@@H]1O    Cytoplasm
4                      C[N+](C)(C)CCOC(N)=O  Perinucleus

What the record says about CCO : Predominant Localization of ε-PKC (agent alone) is Cytoplasm
